system: LNCaP tumor-bearing CB-17 SCID mice; conditions: male, mouse, in vivo, 1 h
Provide the reported Biodistribution lung of each item.
The reply should be a number in % ID/g, with the unit left off.

query: Could you share which Biodistribution lung value was measured for CC(C)(C)[Si](F)(c1ccc(C(=O)NC[C@@H](NC(=O)CC[C@@H](C(=O)O)N2CCN(CC(=O)O)CCN(CC(=O)O)CCN(CC(=O)O)CC2)C(=O)N[C@H](CCCCNC(=O)CCC(=O)NCCC[C@@H](NC(=O)CC[C@H](NC(=O)N[C@@H](CCC(=O)O)C(=O)O)C(=O)O)C(=O)O)C(=O)O)cc1)C(C)(C)C [rhPSMA7.3, [^19F][^natGa]D-Dap-S-DOTAGA-rhPSMA7, metal not drawn] ?
result: 2.2

query: Could you share which Biodistribution lung value was measured for CC(C)(C)[Si](F)(c1ccc(C(=O)NC[C@H](NC(=O)CC[C@H](C(=O)O)N2CCN(CC(=O)O)CCN(CC(=O)O)CCN(CC(=O)O)CC2)C(=O)N[C@H](CCCCNC(=O)CCC(=O)NCCC[C@@H](NC(=O)CC[C@H](NC(=O)N[C@@H](CCC(=O)O)C(=O)O)C(=O)O)C(=O)O)C(=O)O)cc1)C(C)(C)C [rhPSMA7.2, [^19F][^natGa]L-Dap-R-DOTAGA-rhPSMA7, metal not drawn] ?
result: 0.89

query: Could you share which Biodistribution lung value was measured for CC(C)(C)[Si](F)(c1ccc(C(=O)NC[C@@H](NC(=O)CC[C@H](C(=O)O)N2CCN(CC(=O)O)CCN(CC(=O)O)CCN(CC(=O)O)CC2)C(=O)N[C@H](CCCCNC(=O)CCC(=O)NCCC[C@@H](NC(=O)CC[C@H](NC(=O)N[C@@H](CCC(=O)O)C(=O)O)C(=O)O)C(=O)O)C(=O)O)cc1)C(C)(C)C [rhPSMA7.1, [^19F][^natGa]D-Dap-R-DOTAGA-rhPSMA7, metal not drawn] ?
result: 1.1

query: Could you share which Biodistribution lung value was measured for CC(C)(C)[Si](F)(c1ccc(C(=O)NC[C@H](NC(=O)CC[C@@H](C(=O)O)N2CCN(CC(=O)O)CCN(CC(=O)O)CCN(CC(=O)O)CC2)C(=O)N[C@H](CCCCNC(=O)CCC(=O)NCCC[C@@H](NC(=O)CC[C@H](NC(=O)N[C@@H](CCC(=O)O)C(=O)O)C(=O)O)C(=O)O)C(=O)O)cc1)C(C)(C)C [rhPSMA7.4, [^19F][^natGa]L-Dap-S-DOTAGA-rhPSMA7, metal not drawn] ?
result: 1.59

----------
test system: LNCaP tumor-bearing CB-17 SCID mice; conditions: male, mouse, in vivo, 1 h
ENDPOINT NAME: Biodistribution kidneys (% ID/g)
The reply should be a number in % ID/g, with the unit left off.

query: Item: CC(C)(C)[Si](F)(c1ccc(C(=O)NC[C@@H](NC(=O)CC[C@H](C(=O)O)N2CCN(CC(=O)O)CCN(CC(=O)O)CCN(CC(=O)O)CC2)C(=O)N[C@H](CCCCNC(=O)CCC(=O)NCCC[C@@H](NC(=O)CC[C@H](NC(=O)N[C@@H](CCC(=O)O)C(=O)O)C(=O)O)C(=O)O)C(=O)O)cc1)C(C)(C)C [rhPSMA7.1, [^19F][^natGa]D-Dap-R-DOTAGA-rhPSMA7, metal not drawn] Test system: LNCaP tumor-bearing CB-17 SCID mice Read-out: Biodistribution kidneys Value: ?
result: 220

query: Item: CC(C)(C)[Si](F)(c1ccc(C(=O)NC[C@@H](NC(=O)CC[C@@H](C(=O)O)N2CCN(CC(=O)O)CCN(CC(=O)O)CCN(CC(=O)O)CC2)C(=O)N[C@H](CCCCNC(=O)CCC(=O)NCCC[C@@H](NC(=O)CC[C@H](NC(=O)N[C@@H](CCC(=O)O)C(=O)O)C(=O)O)C(=O)O)C(=O)O)cc1)C(C)(C)C [rhPSMA7.3, [^19F][^natGa]D-Dap-S-DOTAGA-rhPSMA7, metal not drawn] Test system: LNCaP tumor-bearing CB-17 SCID mice Read-out: Biodistribution kidneys Value: ?
result: 292

query: Item: CC(C)(C)[Si](F)(c1ccc(C(=O)NC[C@H](NC(=O)CC[C@@H](C(=O)O)N2CCN(CC(=O)O)CCN(CC(=O)O)CCN(CC(=O)O)CC2)C(=O)N[C@H](CCCCNC(=O)CCC(=O)NCCC[C@@H](NC(=O)CC[C@H](NC(=O)N[C@@H](CCC(=O)O)C(=O)O)C(=O)O)C(=O)O)C(=O)O)cc1)C(C)(C)C [rhPSMA7.4, [^19F][^natGa]L-Dap-S-DOTAGA-rhPSMA7, metal not drawn] Test system: LNCaP tumor-bearing CB-17 SCID mice Read-out: Biodistribution kidneys Value: ?
result: 153

query: Item: CC(C)(C)[Si](F)(c1ccc(C(=O)NC[C@H](NC(=O)CC[C@H](C(=O)O)N2CCN(CC(=O)O)CCN(CC(=O)O)CCN(CC(=O)O)CC2)C(=O)N[C@H](CCCCNC(=O)CCC(=O)NCCC[C@@H](NC(=O)CC[C@H](NC(=O)N[C@@H](CCC(=O)O)C(=O)O)C(=O)O)C(=O)O)C(=O)O)cc1)C(C)(C)C [rhPSMA7.2, [^19F][^natGa]L-Dap-R-DOTAGA-rhPSMA7, metal not drawn] Test system: LNCaP tumor-bearing CB-17 SCID mice Read-out: Biodistribution kidneys Value: ?
result: 87.6

----------
test system: LNCaP tumor-bearing CB-17 SCID mice; conditions: male, mouse, in vivo, 1 h
Provide the reported Biodistribution pancreas of each item.
The reply should be a number in % ID/g, with the unit left off.

query: Could you share which Biodistribution pancreas value was measured for CC(C)(C)[Si](F)(c1ccc(C(=O)NC[C@@H](NC(=O)CC[C@H](C(=O)O)N2CCN(CC(=O)O)CCN(CC(=O)O)CCN(CC(=O)O)CC2)C(=O)N[C@H](CCCCNC(=O)CCC(=O)NCCC[C@@H](NC(=O)CC[C@H](NC(=O)N[C@@H](CCC(=O)O)C(=O)O)C(=O)O)C(=O)O)C(=O)O)cc1)C(C)(C)C [rhPSMA7.1, [^19F][^natGa]D-Dap-R-DOTAGA-rhPSMA7, metal not drawn] ?
result: 0.45

query: Could you share which Biodistribution pancreas value was measured for CC(C)(C)[Si](F)(c1ccc(C(=O)NC[C@H](NC(=O)CC[C@H](C(=O)O)N2CCN(CC(=O)O)CCN(CC(=O)O)CCN(CC(=O)O)CC2)C(=O)N[C@H](CCCCNC(=O)CCC(=O)NCCC[C@@H](NC(=O)CC[C@H](NC(=O)N[C@@H](CCC(=O)O)C(=O)O)C(=O)O)C(=O)O)C(=O)O)cc1)C(C)(C)C [rhPSMA7.2, [^19F][^natGa]L-Dap-R-DOTAGA-rhPSMA7, metal not drawn] ?
result: 0.21

query: Could you share which Biodistribution pancreas value was measured for CC(C)(C)[Si](F)(c1ccc(C(=O)NC[C@H](NC(=O)CC[C@@H](C(=O)O)N2CCN(CC(=O)O)CCN(CC(=O)O)CCN(CC(=O)O)CC2)C(=O)N[C@H](CCCCNC(=O)CCC(=O)NCCC[C@@H](NC(=O)CC[C@H](NC(=O)N[C@@H](CCC(=O)O)C(=O)O)C(=O)O)C(=O)O)C(=O)O)cc1)C(C)(C)C [rhPSMA7.4, [^19F][^natGa]L-Dap-S-DOTAGA-rhPSMA7, metal not drawn] ?
result: 0.50

----------
system: LNCaP tumor-bearing CB-17 SCID mice; settings: male, mouse, in vivo, 1 h
ENDPOINT NAME: Biodistribution stomach (% ID/g)
The reply should be a number in % ID/g, with the unit left off.

query: Could you share which Biodistribution stomach value was measured for CC(C)(C)[Si](F)(c1ccc(C(=O)NC[C@H](NC(=O)CC[C@H](C(=O)O)N2CCN(CC(=O)O)CCN(CC(=O)O)CCN(CC(=O)O)CC2)C(=O)N[C@H](CCCCNC(=O)CCC(=O)NCCC[C@@H](NC(=O)CC[C@H](NC(=O)N[C@@H](CCC(=O)O)C(=O)O)C(=O)O)C(=O)O)C(=O)O)cc1)C(C)(C)C [rhPSMA7.2, [^19F][^natGa]L-Dap-R-DOTAGA-rhPSMA7, metal not drawn] ?
result: 0.19

----------
tested on: LNCaP tumor-bearing CB-17 SCID mice; conditions: male, mouse, in vivo, 1 h
ENDPOINT NAME: Biodistribution blood (% ID/g)
The reply should be a number in % ID/g, with the unit left off.

query: Item: CC(C)(C)[Si](F)(c1ccc(C(=O)NC[C@@H](NC(=O)CC[C@@H](C(=O)O)N2CCN(CC(=O)O)CCN(CC(=O)O)CCN(CC(=O)O)CC2)C(=O)N[C@H](CCCCNC(=O)CCC(=O)NCCC[C@@H](NC(=O)CC[C@H](NC(=O)N[C@@H](CCC(=O)O)C(=O)O)C(=O)O)C(=O)O)C(=O)O)cc1)C(C)(C)C [rhPSMA7.3, [^19F][^natGa]D-Dap-S-DOTAGA-rhPSMA7, metal not drawn] Test system: LNCaP tumor-bearing CB-17 SCID mice Read-out: Biodistribution blood Value: ?
result: 0.96

query: Item: CC(C)(C)[Si](F)(c1ccc(C(=O)NC[C@H](NC(=O)CC[C@H](C(=O)O)N2CCN(CC(=O)O)CCN(CC(=O)O)CCN(CC(=O)O)CC2)C(=O)N[C@H](CCCCNC(=O)CCC(=O)NCCC[C@@H](NC(=O)CC[C@H](NC(=O)N[C@@H](CCC(=O)O)C(=O)O)C(=O)O)C(=O)O)C(=O)O)cc1)C(C)(C)C [rhPSMA7.2, [^19F][^natGa]L-Dap-R-DOTAGA-rhPSMA7, metal not drawn] Test system: LNCaP tumor-bearing CB-17 SCID mice Read-out: Biodistribution blood Value: ?
result: 0.56

query: Item: CC(C)(C)[Si](F)(c1ccc(C(=O)NC[C@@H](NC(=O)CC[C@H](C(=O)O)N2CCN(CC(=O)O)CCN(CC(=O)O)CCN(CC(=O)O)CC2)C(=O)N[C@H](CCCCNC(=O)CCC(=O)NCCC[C@@H](NC(=O)CC[C@H](NC(=O)N[C@@H](CCC(=O)O)C(=O)O)C(=O)O)C(=O)O)C(=O)O)cc1)C(C)(C)C [rhPSMA7.1, [^19F][^natGa]D-Dap-R-DOTAGA-rhPSMA7, metal not drawn] Test system: LNCaP tumor-bearing CB-17 SCID mice Read-out: Biodistribution blood Value: ?
result: 0.53

query: Item: CC(C)(C)[Si](F)(c1ccc(C(=O)NC[C@H](NC(=O)CC[C@@H](C(=O)O)N2CCN(CC(=O)O)CCN(CC(=O)O)CCN(CC(=O)O)CC2)C(=O)N[C@H](CCCCNC(=O)CCC(=O)NCCC[C@@H](NC(=O)CC[C@H](NC(=O)N[C@@H](CCC(=O)O)C(=O)O)C(=O)O)C(=O)O)C(=O)O)cc1)C(C)(C)C [rhPSMA7.4, [^19F][^natGa]L-Dap-S-DOTAGA-rhPSMA7, metal not drawn] Test system: LNCaP tumor-bearing CB-17 SCID mice Read-out: Biodistribution blood Value: ?
result: 1.15
